viability at 10 µM by entry:
Tested on: expanded OPCs
assay-details: cells
condition-parameters: Rattus norvegicus, 72 h, read-out: 10 µM (% DMSO), alamarBlue viability, NCC library compound at 10 µM, sheet "All Tox data"
reported-metric: viability at 10 µM (%)

compound="O=C1Nc2ccc(Cl)cc2C(c2ccccc2Cl)=NC1O (centres unmarked)" observed_result=71.2
compound=O=C(NCCO[N+](=O)[O-])c1cccnc1 observed_result=82.2
compound=CN(C)CCCN1c2ccccc2Sc2ccc(Cl)cc21 observed_result=10.5
compound="CCOC(=O)C1(c2ccccc2)CCN(CCC(C#N)(c2ccccc2)c2ccccc2)CC1 [Diphenoxylate]" observed_result=23.2
compound=C[C@]12Cc3c[nH]nc3C[C@@H]1CC[C@@H]1[C@@H]2CC[C@@]2(C)[C@H]1CC[C@]2(C)O observed_result=61.7
